# test_name: yeast display, Sf9 membrane polyspecificity reagent, FACS + sequencing; frameworks hold sequencing errors
quantity_measured: polyreactivity (PSR sort gate)

ordered_residues	val
QVQLVESGGGLVQAGGSLRLSCAASGSTFGPYVMGRYRQAPGKDRELVAAITRSGGRTYYADSVKGRFTISRDNAKNTVYLQMNSLKPEDTAVYYCAAPPSEATSQRYKYNYWGQGTQVTVSS	high polyreactivity
QVQLVESGGGLVQAGGSLRLSCAASGYIFTRNAMGWYRQAPGKERELVAAISRSGGSTYYADSLKGRFTISRDNAKNTVYLQMNSLKPEDTSVYYCAAVDKGRPGRDYWGQGTQVTVSS	low polyreactivity
QVQLQESGGGLVQAGGSLRLICSASGTNFTARFIGWYRQAPGKERELVATITDGGNTNHADSVKGRFTISRDNAKNTVFLQMNSLKPEDAAVYYCAAGEVDIDTLLYWGQGSQVTVSS	low polyreactivity
QVQLVESGGGLVQAGGSLRLSCAASGSISVNAMVWDRQAPGKERELVAVINRSGGNTYYADSVKGRFTISRDNAKNTVYLQMNSLKPEDTAVYYCAAKWTRSYSRYDYWGQVTQVTVSS	high polyreactivity
QVQLVESGGGLVQAGGSLRLTCAASGRTFAYNAMGWYRQAPGKERELVAAITSSGTSTYYADSVKGRFTISRDNAKNTVYLQINCLKPEDTAVYYCAGRQSQKYGLFYYWGQGTQVTVSS	high polyreactivity
QVQLVESGGGLVQAGGSLRLSSAASGITYYGYAMGWYRQAPGKERELVAAISKSGGSTHYADSVKGRFTISRDNAINTVYLQMYRLKPEDTAVYYCAAAYWTRLRRMDYWGQGTQVTVSS	low polyreactivity
QVQLVESGGGLDQAGGSLRLICAASGSIFNGNAMGWYRQAPGKQRDLVAAITRRGGSTYYADSVKVRFTISRDNAKNTVYLQMNSLKPEDTAVYYCAAEDWLYKRPYKERIVQFYYWGQGTQVTVSS	low polyreactivity
QVQLVESGGGLVQAGGILRLRCAASGLTFVYYAMGWYRQAPGKERELVAGITSRGGRTYYADSVKGRFTISRDNAKNTVYLQMNSLKPEDTAGYYCNAVDRYNRFDYWGQGTQVTVSS	high polyreactivity
QVQLVESGGGIVQAGGRLRLSCAASGRTSAVNAMVWYRQAPGKERELVAAITKSGGRTYYADSEKGRFTISRDNAKNTVYLQMNSLKPEDTAVYYCATSLLSRYGMDYWGQGTQVTVSS	high polyreactivity
QVQLVESGGGLVQAGGSLRLSCAASGLTFYCYAMGWYRQAPGKERELVAAITSGDSTYYADSVKGRFTISRDNAKNTVYLQMNSLKPEDTAVYYCAAVGGYPRYGYWGQGTQVTVSS	high polyreactivity

Exercise: Look up polyreactivity (PSR sort gate): QLQLVESGGGLVQAGGSLRLSCAASGTIFDTYAMGWSRQAPGKEMELVAAIRWTGGSTYYADSVKGRFTISRENAKNTVYFQMNSLKPEDTAVYYCAATWYYHYNDWKPWFEYGYWGQGTQVTVSS
Solution: low polyreactivity

Exercise: Look up polyreactivity (PSR sort gate): QVQLVESGGGLVQAGGSLRLSCAASGNNFYRNAMGWSRQAPGKERELVAAINSGSSTKYADSVKGRFTISRDNAKNTVYLQMNSLKPEDTAVYYCAKRRYTAIWYGYWGQGSQVTVSS
Solution: high polyreactivity

Exercise: Look up polyreactivity (PSR sort gate): QVQLVESGGGLVQAGGSLRLSCAASGLTFRTYAMGWYRQAPGKERELVAAISRSGSTTYYADSVKGRFTISRDNAKNTVYLQMNSLKPEDTAVYYCAAVGIRWLEYWGQGTQVTVSS
Solution: high polyreactivity

Exercise: Look up polyreactivity (PSR sort gate): QVQLVESGGCLVQAGGSLPLSSAASGSTFSYNDMGSDRQAPGKARELVADINVSVGRTYYADSVKGRFTISRDNAKNTVYLQMNSLKPEDTAVYYCAKDYYRYHYYYCGQGTQVTVSS
Solution: low polyreactivity

Exercise: Look up polyreactivity (PSR sort gate): QVHLVESGGGLVQAVVSLRLSCAASGTTFVSYAMGWYRHATGKERELVAGISWSGTRTYYADSVKGRFTISRDNAMNTVYLQMNSLKPEDSAVYYCNAVYIYNYRTLDYWGQGTQVTVSS
Solution: high polyreactivity

Exercise: Look up polyreactivity (PSR sort gate): QVQLVESGGGLVQAGGSLRLSCAASGFIFYRYAIGWYIQAPGKEREFVASISGSGGRTYYADSVKGRFTISRDNAKNTVYLQMNTLKPEDTAGYYCAADRYSAYLYWDEYWGQGTQVTVSS
Solution: high polyreactivity

Exercise: Look up polyreactivity (PSR sort gate): QVQLVESGGGLVQAGGSLRLSCAASGSIFVKNAMGWYRQAPGKERELVARITYSGGSTYYADSVKGRFTISRDNAKNTVYLQMNSLKPEDTAVYYCAARYWYFPQTYYPGNDYWGQGTQVTVSS
Solution: high polyreactivity

Exercise: Look up polyreactivity (PSR sort gate): QVQLVESGGGLVQAGGSLRLSCAASGLSSLRMLWDGRDRRLGKKGSWLPLITSGGDSTNYADSVKGRFTISRDNAKNTVYLQMNSLKPEDTAVYYCAADLDYPYGYWGQGTQVTVSS
Solution: low polyreactivity

Exercise: Look up polyreactivity (PSR sort gate): QVQLVESGGGLVQAGGSLRLSCAASGFIFVTNVMGWYRQAPGKERELVAAISRRGTNTYYADSVKGRFTISRDNAKNTVYLQMNSLKPEDTAVYYCNKLVFHTGGFRYDYWGQGTQVTVSS
Solution: high polyreactivity

Exercise: Look up polyreactivity (PSR sort gate): QVQLVESGGGLVQAGGSLRLSCAASGPTFPFNAMVWYRQAPGKERELVAAISWRDGRTYYADSVKGRFTISRDNAKNTVYLQMNSLKPEDTAVYYCNVVKRRSDWGMVYWGQGTQVTVSS
Solution: high polyreactivity

Exercise: Look up polyreactivity (PSR sort gate): QVQLVESGGGLVQAGGSLRLSSSASGGIFRSYAMGWYRQAPGKERELVATITDRGGSTYYADSVKGRFTISRDNAKNTVYLQMNSLKPEDTAVYYCAAELVNRLWYRVVHFDYWGQGPQVTVSS
Solution: low polyreactivity
